Each recorded value in this set is attributed to the supplement of paper PMC9112550.

# Tested on: Escherichia coli TOP10
# experiment: shrunken log2 fold change of peptide-encoding DNA abundance (4.5 h post-induction vs induction); higher = less antimicrobial activity (less host growth inhibition)
# experimental-conditions: time post-induction: 4.5 h; library: site-saturation at positions 5, 18, 19, 20
Tag: yes (1) if measured shrunken log2 fold change is not below 0.2, no (0) if it is.

RRIRERPPRLPRPRPRPNIDPRP = no (0)

Has RRIRDRPPRLPRPRPRPDDWPRP a recorded shrunken log2 fold change greater than or equal to 0.2?
yes (1)

shrunken log2 fold change >= 0.2 for RRIRRRPPRLPRPRPRPPTTPRP ?
yes (1)

Reported shrunken log2 fold change at or above 0.2? RRIRGRPPRLPRPRPRPPRQPRP
yes (1)

Could you please find out whether RRIRGRPPRLPRPRPRPYSPPRP has shrunken log2 fold change that meets 0.2 or exceeds it?
no (0)

Decide: is the reported value of shrunken log2 fold change for RRIRGRPPRLPRPRPRPYVNPRP equal to or greater than 0.2?
no (0)

Determine whether measured shrunken log2 fold change meets or exceeds 0.2 for RRIRRRPPRLPRPRPRPLGWPRP
yes (1)

Given the entry RRIRIRPPRLPRPRPRPAYVPRP , answer whether its shrunken log2 fold change meets or surpasses 0.2.
no (0)

// inclusive: shrunken log2 fold change at least 0.2? input: RRIRDRPPRLPRPRPRPVGWPRP
yes (1)

shrunken log2 fold change >= 0.2 for RRIRTRPPRLPRPRPRPGRAPRP ?
yes (1)

# check: shrunken log2 fold change of RRIRRRPPRLPRPRPRPIQWPRP is greater than or equal to 0.2
no (0)

Quick check: does RRIRWRPPRLPRPRPRPLPWPRP have shrunken log2 fold change greater than or equal to 0.2?
yes (1)

Answer whether shrunken log2 fold change of RRIRARPPRLPRPRPRPWNAPRP is greater than or equal to 0.2.
no (0)

Reported shrunken log2 fold change at or above 0.2? RRIRVRPPRLPRPRPRPKTTPRP
no (0)

// inclusive: shrunken log2 fold change at least 0.2? input: RRIRCRPPRLPRPRPRPYWSPRP
no (0)

Does RRIRRRPPRLPRPRPRPGTTPRP have a reported shrunken log2 fold change of at least 0.2?
yes (1)

Can RRIRDRPPRLPRPRPRPDSLPRP be said to have shrunken log2 fold change at or above 0.2?
no (0)

Decide: is the reported value of shrunken log2 fold change for RRIRSRPPRLPRPRPRPIANPRP equal to or greater than 0.2?
no (0)

Can RRIRNRPPRLPRPRPRPHNVPRP be said to have shrunken log2 fold change at or above 0.2?
no (0)

Please check the record RRIRLRPPRLPRPRPRPPCQPRP and state if its shrunken log2 fold change is at or above 0.2.
no (0)

Check if shrunken log2 fold change >= 0.2 (inclusive). Item: RRIRIRPPRLPRPRPRPKRTPRP
no (0)

* * *

# Tested on: Escherichia coli TOP10;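 further: peptides expressed intracellularly from a pBAD plasmid library in pooled LB shake-flask culture, induced with 0.3% L-arabinose, DNA abundance read by NGS, three biological replicates, DESeq2 with apeglm shrinkage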
# experiment: shrunken log2 fold change of peptide-encoding DNA abundance (4.5 h post-induction vs induction); higher = less antimicrobial activity (less host growth inhibition)
# experimental-conditions: time post-induction: 4.5 h; library: site-saturation at positions 5, 18, 19, 20
readout-label: shrunken log2 fold change
One number for each entry.

// solved cases for shrunken log2 fold change follow
RRIRRRPPRLPRPRPRPIWGPRP = 0.163
RRIRGRPPRLPRPRPRPCADPRP = 1.48
RRIRVRPPRLPRPRPRPVAPPRP = 0.242
RRIRVRPPRLPRPRPRPKHLPRP = 0.0232
RRIRTRPPRLPRPRPRPERCPRP = 0.0057
RRIRMRPPRLPRPRPRPRGNPRP = 0.37
RRIRYRPPRLPRPRPRPRNRPRP = -0.0543

Consider now this further sequence.
For the sequence RRIRGRPPRLPRPRPRPGGCPRP , give its measured shrunken log2 fold change value.
1.19
